FYI, the data here is from patent US11078168B2.

Measured pIC50 of individual entries
Assayed Target: Indoleamine 2,3-dioxygenase (Homo sapiens, UniProt P14902)
Construct: endogenous in cells
Sequence (P14902 whole entry): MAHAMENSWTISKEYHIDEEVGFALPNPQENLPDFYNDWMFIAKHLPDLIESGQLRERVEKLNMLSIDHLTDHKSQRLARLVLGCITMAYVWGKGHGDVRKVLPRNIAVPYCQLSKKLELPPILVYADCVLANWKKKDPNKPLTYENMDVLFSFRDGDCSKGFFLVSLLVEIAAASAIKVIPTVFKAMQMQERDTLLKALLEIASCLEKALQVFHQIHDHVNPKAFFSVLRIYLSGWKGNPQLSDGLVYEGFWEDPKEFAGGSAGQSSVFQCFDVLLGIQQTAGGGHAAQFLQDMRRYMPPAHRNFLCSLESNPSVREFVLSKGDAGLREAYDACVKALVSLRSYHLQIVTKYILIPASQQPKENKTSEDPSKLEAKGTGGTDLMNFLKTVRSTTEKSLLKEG
Protocol Text: SKOV-3 cellular Indoleamine 2,3-dioxygenase assay
Condition Info: SKOV-3 cells, 50 ng/ml Interferon gamma, 100 μM L-Tryptophan, 24 hours, N-Formylkynurenin fluorescence detection; read-out: cell based activity
pIC50: −log10 of the molar value.

INSERT INTO measurements (compound, value_observed) VALUES
  ('O=C(NCCSc1nonc1C(=NO)Nc1ccc(F)c(C(F)F)c1)C1CCN1 (stereo not drawn)', '> 7.00'),
  ('NS(=O)(=O)CC(=O)NCCSc1nonc1C(=NO)Nc1ccc(F)c(Br)c1F', '> 7.00'),
  ('NS(=O)(=O)CC(=O)NCCSc1nonc1/C(=N/O)Nc1cccc(Br)c1', '> 7.00'),
  ('NS(=O)(=O)CC(=O)NCCOc1nonc1C(=NO)Nc1cccc(C(F)(F)F)c1', '6.00 to 7.00');

Query compound follows.
Ask: Value wanted: pIC50 (Indoleamine 2,3-dioxygenase (Homo sapiens, UniProt P14902)) of entry COc1nonc1C(=NO)Nc1cccc(CCCl)c1
Reply: < 6.00
